Change: recorded values
Test system: Rattus norvegicus
Test method notes: Triglyceride change in Sprague-Dawley rat after 30 mg/kg peroral administration
Condition notes: route oral
Recorded metric: Change (%)

[[record]]
molecule = "CCCc1cc2c(C(F)(F)F)noc2c(CCC)c1OC(C(=O)O)c1ccc(C(F)(F)F)cc1 (stereo unspecified)"
readout_number = -41

[[record]]
molecule = "CCCc1cc2c(C(F)(F)F)noc2c(CCC)c1OC(C(=O)O)c1ccccc1 (stereo unspecified)"
readout_number = -52

[[record]]
molecule = "CCCc1c(OC(C(=O)O)c2ccccc2)c(Cl)cc2c(CC)noc12 (stereo unspecified)"
readout_number = -11

[[record]]
molecule = "CCCc1cc2c(C(F)(F)F)noc2c(CCC)c1OC(C(=O)O)c1ccc(OCc2ccccn2)cc1 (stereo unspecified)"
readout_number = -47

[[record]]
molecule = "CCCc1cc2c(C(F)(F)F)noc2c(CCC)c1OC(C(=O)O)c1ccc(Cl)cc1 (stereo unspecified)"
readout_number = -56

[[record]]
molecule = "CCCc1cc(C(=O)CC)c(O)c(CCC)c1OC(C(=O)O)c1ccccc1 (stereo unspecified)"
readout_number = -8

